Test system: NCI-H226 lung
assay_notes: NCI-60 one-dose screen, 48 h
condition_parameters: 10 µM unless noted
About 83,000 compounds went through this panel and 20% of them were active in at least one assay; those are over-represented in the sample as a whole. Active and inactive are the calls of the source. How the source made its calls: active means growth percent below 10; inactive means the rest.
Classes used: yes (1) for active, no (0) for inactive

| test_smiles | category |
| --- | --- |
| Cc1[nH]c(C(=O)Nc2ccccc2OCc2cccc(C(=O)N3CCC[C@@H](N)C3)c2)c(Cl)c1Cl | yes (1) |
| CC(C)(O)c1cncc(-c2ccc3ncnc(NCc4ccccc4)c3c2)c1 | no (0) |
| CC1(C)CC[C@]23CC[C@]4(C)[C@H](CC[C@@H]5[C@@]6(C)CCCN(CO)C(C)(C)[C@@H]6CC[C@]54C)[C@H]2[C@H]1OC3 | no (0) |
| CC1(C)CC[C@]2(C(=O)N3CCOCC3)CC[C@]3(C)C(=CC[C@@H]4[C@@]5(C)C/C(=C/c6ccccn6)C(=O)C(C)(C)[C@@H]5CC[C@]43C)[C@@H]2C1 | no (0) |

---

Each entry below carries its reported growth.
System: UACC-257 melanoma
assay_notes: NCI-60 one-dose screen, 48 h (100 = growth as untreated, 0 = no growth, -100 = all killed)
condition_parameters: 10 µM unless noted
Compounds without any hit were thinned out: in the full panel of roughly 83,000, 20% have a hit.

| compound | quantity_unit | growth |
| --- | --- | --- |
| O=C(O)c1ccc(-n2cc(CNc3cc(F)c(F)c(F)c3)c(-c3ccc(F)cc3)n2)cc1 | % | 105 |
| COc1ccc(S(=O)(=O)NCCCNc2nccc(-c3[nH]c(-c4ccccc4)nc3-c3ccc(Cl)c(O)c3)n2)cc1 | % | 23.6 |
| CCN(CC)CCn1c2ccc(O)cc2c2sc3cc(OC)ccc3c(=O)c21 | % | 80 |
| O=S(=O)(NCCCNc1nccc(-c2[nH]c(-c3ccccc3)nc2-c2ccc(Cl)c(O)c2)n1)c1cccc2ccccc12 | % | 27 |
| CNCc1cccc2c1OCCCCCCC(C)(O)CC(C)(C)S(=O)(=O)c1ccc(cc1)-c1cnc(N)c(n1)C(=O)N2 (configuration not stated) | % | 18.1 |
| C#CCC#CCN1CCC[C@H]1C(=O)NCC(=O)OC | % | 93.7 |
| c1cn2c(ccc3nc(-c4cn[nH]c4)c4c(c32)CCCC4)n1 | % | 63.5 |
| Cc1ccc(S(=O)(=O)NCCNc2nc(Nc3ccc(N4CCN(C)CC4)cc3)nc3ccsc23)cc1 | % | 107 |
| C=C1CC[C@@H]2[C@]3(C)COC(c4ccccc4)O[C@@H]3CC[C@@]2(C)[C@@H]1C/C=C1/C(=O)OC[C@H]1O (some centres not stated) | % | 85 |
| Cn1cc(-c2nc(N)nnc2-c2c[nH]c3ccc(Br)cc23)c2cc(Br)ccc21 | % | 82.9 |
| Cc1ccc(C(=O)NN2C(=O)/C(=C/C=C/c3ccco3)SC2=S)cc1 | % | 91 |
| COc1cc(OC)cc(C(=O)Nc2sc3c(c2C(N)=O)CCC(=O)C3)c1 | % | 53.2 |
| O=C(Cn1c(-c2ccccc2)nc2cc(Cl)c(Cl)cc21)N=Nc1c(O)[nH]c2ccc(Cl)cc12 | % | 84.4 |
| Cc1ccc(-c2nnc(SCc3ccc(O)c4ncccc34)o2)cc1 | % | 9.75 |
| O=C(NNc1nc2cc(F)ccc2n2c(CN3CCC(O)C3)ccc12)c1cnccn1 (configuration not stated) | % | 7.04 |
| CCCn1cnc2c(c1=N)C(c1ccc(F)cc1)c1sc3c(CC)cccc3c1O2 (configuration not stated) | % | 65.5 |
| CNC(=O)c1cc(-c2ccc(NC(=S)Nc3cc(C(F)(F)F)cc(C(F)(F)F)c3)cc2)nc2cccnc12 | % | 102 |
| CN(C)C(=O)c1cc(-c2ccc3ncnc(NCc4ccccc4)c3c2)cnc1N | % | 94.4 |
| CC/C(=C/c1cc(OC)ccc1O)c1ccc2cc(OC)ccc2[o+]1 | % | 65.6 |
| C[C@H](CCC(=O)NCc1ccc(C(=O)Nc2ccccc2N)cc1)[C@H]1CC[C@H]2[C@@H]3[C@@H](O)C[C@@H]4C[C@H](O)CC[C@]4(C)[C@H]3CC[C@]12C | % | 63.7 |
| COc1ccc2c(c1)Oc1nc(N)c(C#N)c(N)c1C2Sc1ccc(C)cc1 (configuration not stated) | % | 9.55 |
| COc1cc2oc(-c3cccc(C(=O)N[C@@H](CC(C)C)C(=O)OC(C)(C)C)c3)cc(=O)c2c(OC)c1OC | % | 112 |
| COc1ccc([C@H]2c3[nH]c4ccccc4c3C[C@H]3C(=O)N(C4CCN(Cc5c(Cl)cccc5Cl)CC4)CC(=O)N23)c(OC)c1 | % | 116 |
| O=C(CSc1nc2ccccc2c(=O)n1-c1ccc(Cl)cc1)N/N=C/c1ccc(N2CCCCC2)cc1 | % | 97.1 |
| O=C(Nc1nc2ccc([N+](=O)[O-])cc2s1)Nc1ccccc1Cl | % | 23.2 |
| CNC(=O)c1cc(-c2ccc(NS(=O)(=O)c3ccc(C)cc3)cc2)nc2cccnc12 | % | 105 |
| O=C(Nc1ccc2c(ccn2Cc2ccccn2)c1)c1cnccn1 | % | 102 |
| COc1ccc(C(=O)Nc2ncc(Cc3ccccc3Cl)s2)cc1 | % | 67 |
| Clc1nc2ccccc2nc1-c1nnc(C2CCCCC2)o1 | % | 96.7 |
| Clc1cccc(/C=N/Nc2nc(N/N=C/c3cccc(Cl)c3Cl)nc(N3CCCCC3)n2)c1Cl | % | 100 |
| CC1(C)[C@@H](O)CC[C@]2(C)[C@H]3CC[C@@H]4[C@H]5[C@H](C(=O)/C=C\c6ccncc6)CC[C@]5(O)CC[C@@]4(C)[C@]3(C)CC[C@@H]12 | % | 72.8 |
| COc1ccc(S(=O)(=O)NCCCNc2nccc(-c3cn(C(C)(C)C)nc3-c3ccc(Cl)c(OC)c3)n2)cc1 | % | 104 |
| Nc1nc(N)c2c(n1)NC(c1ccc(C(F)(F)F)cc1)CC(c1ccc(Nc3nc(NCCO)nc(N4CCOCC4)n3)cc1)=N2 (configuration not stated) | % | 80.2 |
| CC(=O)c1ccc(Nc2nc(SCC(C)C)nc(-c3ccc(F)cc3)c2C#N)cc1 | % | 106 |
| Cc1ccc(NC(=S)NNC(=S)Nc2ccc(C)cc2)cc1 | % | 117 |
| COc1cc2c(cc1OC)C(Sc1ccc(C)cc1)c1c(nc(N)c(C#N)c1N)O2 (configuration not stated) | % | -35.2 |
| CC/C(=C/c1c(O)cccc1OC)c1ccc2c(OC)cccc2[o+]1 | % | 101 |

---

Tested on: NCI-H226 lung
assay_notes: NCI-60 one-dose screen, 48 h (100 = growth as untreated, 0 = no growth, -100 = all killed)
condition_parameters: 10 µM unless noted
About 83,000 compounds went through this panel and 20% of them were active in at least one assay; those are over-represented in the sample as a whole.
Rule: growth below 70% gives yes, anything at or above gives no.

| test_smiles | category |
| --- | --- |
| CC/C(=C/c1c(O)cccc1OC)c1ccc2c(OC)cccc2[o+]1 | no |
| C=C(C)[C@@H]1CC[C@]2(C(=O)NCCCCCN(CCC#N)CCC#N)CC[C@]3(C)[C@H](CC[C@@H]4[C@@]5(C)CCC(=O)C(C)(C)[C@@H]5CC[C@]43C)[C@@H]12 | no |
| Cn1cc(CNc2nc3ccc(OC/C(=C/F)CN)cc3o2)ccc1=O | no |
| CS(=O)(=O)Nc1cc(-c2ccc3ncc(C#N)c(Nc4cccc(Cl)c4F)c3c2)cnc1Cl | yes |
| COc1cc(OC)c(/C=C/S(=O)(=O)Cc2ccc(OC)c(NC(=O)CCC(=O)NO)c2)c(OC)c1 | yes |
| O=[N+]([O-])c1cc(/C=N/Nc2nc(N/N=C/c3ccc(Cl)c([N+](=O)[O-])c3)nc(N3CCCCC3)n2)ccc1Cl | yes |
| Cc1cc(C)c2sc(=O)n(Cc3nnc(SCCC(=O)O)o3)c2n1 | no |

---

Tested on: EKVX NSCLC
assay_notes: NCI-60 one-dose screen, 48 h (100 = growth as untreated, 0 = no growth, -100 = all killed)
condition_parameters: 10 µM unless noted
The panel holds about 83,000 compounds, 20% with a hit somewhere; the sample as a whole holds those more often.
Quick rule: growth of at least 90% means TRUE, below that means FALSE.

| molecule | category |
| --- | --- |
| COc1ccc(Cn2cc3c(c2-c2cc(OC)c(OC)c(OC)c2)CCc2c(CN4CCOCC4)noc2-3)cc1 | FALSE |
| COc1ccc2c(c1)c(CC(=O)[Se]CC#N)c(C)n2C(=O)c1ccc(Cl)cc1 | FALSE |
| COc1ccc(Cn2cc3c(c2-c2cc(OC)c(OC)c(OC)c2)CCc2c(CN4CCCC4)noc2-3)cc1 | FALSE |
| Oc1cccc2ccc(-c3nnc(SCc4ccc(O)c5ncccc45)n3-c3ccccc3)nc12 | FALSE |
| Cc1ccc(C(=O)NN2C(=O)/C(=C/C=C/c3ccco3)SC2=S)cc1 | TRUE |
| CCOC(=O)C(=O)CC(=O)N1C(=S)NC(=O)C1CC(C)C (centres undefined) | TRUE |
| COc1cc2nc(Cl)nc(Nc3cccc(C4=Nc5c(N)nc(N)nc5NC(c5ccccc5)C4)c3)c2cc1OC (centres undefined) | TRUE |
